Source: paper PMC11931385

assayed.system: T1, Rb^P I679F (human, UniProt P06400 380-788, I679F)
T1 construct: also called variant 57
T1 sequence (looked up): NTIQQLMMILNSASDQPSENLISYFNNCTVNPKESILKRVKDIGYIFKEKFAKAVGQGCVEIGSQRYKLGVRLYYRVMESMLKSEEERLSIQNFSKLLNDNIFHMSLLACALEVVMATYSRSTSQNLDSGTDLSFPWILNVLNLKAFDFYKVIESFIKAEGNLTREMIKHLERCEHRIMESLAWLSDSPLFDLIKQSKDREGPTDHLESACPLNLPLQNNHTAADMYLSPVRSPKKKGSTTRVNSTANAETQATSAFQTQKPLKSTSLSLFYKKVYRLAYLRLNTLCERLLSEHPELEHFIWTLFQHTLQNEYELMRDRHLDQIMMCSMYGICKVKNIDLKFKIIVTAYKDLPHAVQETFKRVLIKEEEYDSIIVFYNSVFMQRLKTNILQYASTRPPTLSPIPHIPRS
assay.comment: fluorescence polarisation; 25 °C; unlabeled Rb^P titrated against 1.5 nM TMR-E2F1^TD or 7.5 nM TMR-E7^LxCxE; 25 mM Tris pH 8.0, 200 mM NaCl, 1 mM DTT, 0.1% Tween-20; 2 min incubation; quadratic fit; apparent Kd for the variants, Kd for WT
setup.conditions: both partners purified
No end group written: not given here. TMR = tetramethyl rhodamine dye
endpoint.name: Kd

binder="{TMR}-GEGIRDLFDCDFGDLTPLD (also called E2F^TD; source: synthetic peptide, bought: GenScript) [TMR-E2F1^TD, peptide of the E2F1 transactivation domain]" endpoint_name=Kd observed_measurement="17 nM"
binder="DLYCYEQLN (also: TMR label, position not given here, source: synthetic peptide, bought: GenScript) [TMR-E7^LxCxE, LxCxE peptide of the E7 oncoprotein from HPV]" endpoint_name=Kd observed_measurement="11 nM"
